Target: T1, recombinant DLL3 ectodomain (rhDLL3-Fc) (human, UniProt Q9NYJ7 27-492, biotinylated (NHS-LC-LC-biotin) in the BLI and SPR assays)
T1 construct: also called rDLL3-Fc; recombinant human DLL3 (rDLL3); not shown: Fc part
T1 sequence: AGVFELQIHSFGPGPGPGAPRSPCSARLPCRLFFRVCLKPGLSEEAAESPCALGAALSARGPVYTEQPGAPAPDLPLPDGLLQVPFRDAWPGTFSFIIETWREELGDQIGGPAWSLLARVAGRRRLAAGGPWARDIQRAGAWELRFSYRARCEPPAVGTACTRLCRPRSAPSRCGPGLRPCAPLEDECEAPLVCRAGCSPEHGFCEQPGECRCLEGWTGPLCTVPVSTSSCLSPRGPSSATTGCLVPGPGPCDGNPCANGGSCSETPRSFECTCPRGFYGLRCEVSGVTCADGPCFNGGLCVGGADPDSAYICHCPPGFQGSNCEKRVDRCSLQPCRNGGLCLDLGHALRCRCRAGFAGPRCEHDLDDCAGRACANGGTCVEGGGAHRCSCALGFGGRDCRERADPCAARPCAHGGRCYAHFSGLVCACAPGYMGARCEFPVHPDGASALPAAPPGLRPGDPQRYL
Assay: SPR off-rate, single point (300 nM peptide), biotinylated rhDLL3-Fc on SA chip
Bridge positions count the residues as written; N and C are the ends. Primed or numbered codes have the meaning given here. K(PEG4-DBCO-FEA) = Lys whose side chain carries PEG4-DBCO conjugated to fluoroethylazide (FEA); Ttds″ = trioxatridecan-succinamic acid linker
value type: koff (s⁻¹)
Give bare numbers, in s⁻¹.

Below, 3 binders whose answers are already recorded.
Ac-AETVEFWWCNGNSENWTCTWGG-{Ttds″-K(PEG3)} (disulfide 9-18 (inferred); also: dimer linked via PEG4-DBCO-FEA, also called dimeric FEA derivative of PepSP1487) [PepSP1581]: 3.4e-05
Ac-AETVEFWWCNGNSENWTCTWGG-{Ttds″-K(PEG4-DBCO-FEA)-NH2} (disulfide 9-18 (inferred), also called monomeric Fluoroethylazide (FEA) derivative of PepSP1462) [PepSP1538]: 0.0039
Ac-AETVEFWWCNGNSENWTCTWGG-{Ttds″-K(Ttds-Ttds-PEG3)} (disulfide 9-18 (inferred); not fully specified; printed as [Ac-AETVEFWWCNGNSENWTCTW-GG-Ttds-K(Ttds-Ttds-PEG3)]2-PEG4-DBCO-; also: dimer linked via PEG4-DBCO-FEA, also called dimeric FEA derivative of PepSP1489) [PepSP1583]: 3.2e-05

Tell me the measured koff of Ac-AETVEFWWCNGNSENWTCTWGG-{Ttds″-K(PEG4-PEG3)} (disulfide 9-18 (inferred); also: dimer linked via PEG4-DBCO-FEA, also called dimeric FEA derivative of PepSP1488) [PepSP1582] , please. 3.6e-05

Sourced from patent US20250074943A1
